test: NCI Yeast Anticancer Drug Screen. Data for the rad50 strain (AID 155);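 also: 0% = growth of vehicle-only cultures of the same strain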; conditions: S. cerevisiae rad50 strain growth inhibition; at 50.0 µM; active compounds read high
This is part of a sample that, as a whole, favours compounds with a hit. Of some 79,000 tested, about 15% had one in any assay.
OBSERVED_PROPERTY: growth inhibition (%)
Give the value, in units of %, as a plain number.

Check out these entries, answers already filled in.
[[record]]
compound = "CC(C)NC(=O)c1ccccc1S(=O)c1ccccc1C(=O)NC(C)C"
readout_value = -16.4

[[record]]
compound = "C/C(CC(=O)Nc1ccccc1C)=N/NS(=O)(=O)c1ccc(C)cc1"
readout_value = -2.2

[[record]]
compound = "COc1ccc(OC)c(-c2nc3ccccc3c(=O)[nH]2)c1"
readout_value = 9.1

[[record]]
compound = "CCCCCCCCCCCCNC(=O)c1ccccc1O"
readout_value = 13.2

[[record]]
compound = "O=C(O)CNC(=O)NNc1ccccc1"
readout_value = -4.75

[[record]]
compound = "CCCCCCC(C)C(C#N)C(=O)OCC (stereo not drawn)"
readout_value = -11.8

[[record]]
compound = "N#C/C(=C\\n1c(=S)[nH]c2ccc([N+](=O)[O-])cc21)c1cccc(Cl)c1"
readout_value = -25.2

[[record]]
compound = "CC1COC(C(C)C)(C(C)C)O1 (stereo not drawn)"
readout_value = -8.6

[[record]]
compound = "Cc1ccc(/C=C2\\CCCC(C(NO)c3ccc(C)cc3)C2=NO)cc1 (stereo not drawn)"
readout_value = -10.9

[[record]]
compound = "Cn1cnc2c(Cl)ncnc21"
readout_value = 12.9


Query: # growth inhibition lookup, item CCCC1=NCCO1
Response: -10.9

Query: Next entry: CCCCCCCCCC[CH2][Sn]([CH2]CCCCCCCCCC)([CH2]CCCCCCCCCC)[CH2]CCCCCCCCCC
Response: 5.8

Query: Next entry: CCN(CC)CCCC(C)NCCCN (stereo not drawn)
Response: -7.15

Query: Next entry: CCCCCCCC(=O)Oc1cccc(C)c1
Response: -0.9

Query: Next entry: C/C(CC(O)(C(F)(F)F)C(F)(F)F)=N\NC(N)=S
Response: -30.1

---

assay: NCI Yeast Anticancer Drug Screen. Data for the cln2 rad14 strain (AID 165);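 also: 0% = growth equal to vehicle treated cultures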; settings: S. cerevisiae cln2 rad14 strain, at 50.0 µM, active compounds read high
About 79,000 compounds went through this panel and 15% of them were active in at least one assay; those are over-represented in the sample as a whole. Activity calls are given as the source filed them. Rule as the data show it: active = growth inhibition above about 70%; inactive = the rest.
growth inhibition by entry:

[[record]]
smiles_notation = "Cc1ccc2c(c1)[n+]([O-])c1c3ccccc3[nH]c1[n+]2[O-]"
observed_property = "growth inhibition"
readout_value = "25.7% (inactive)"

[[record]]
smiles_notation = "COc1cc(OC)c(NC(N)=O)cc1Cl"
observed_property = "growth inhibition"
readout_value = "9.75% (inactive)"

[[record]]
smiles_notation = "O=c1cc(Nc2ccccc2Cl)[nH]c(=O)[nH]1"
observed_property = "growth inhibition"
readout_value = "-41.8% (inactive)"

[[record]]
smiles_notation = "Clc1ccc(N=Nc2ccccc2)cc1"
observed_property = "growth inhibition"
readout_value = "-14.7% (inactive)"

[[record]]
smiles_notation = "O=c1/c(=C/c2ccccc2O)sc2nc3ccccc3n12"
observed_property = "growth inhibition"
readout_value = "15% (inactive)"


Query: # growth inhibition lookup, item Cc1cc2nc3n(c2cc1C)C(=O)c1cc2ccccc2cc1-3
Response: 7.7% (inactive)

Cited source for all entries: PubChem BioAssay (NCI)
